Just for reference, the supplement of paper PMC7877785 is where these values come from.

Test: self-splicing fitness, log relative to wild type (ln ratio); higher = more splicing; Tetrahymena group I intron in knt gene, E. coli kanamycin selection, DiMSum; sequences stand for … in CUCUCU…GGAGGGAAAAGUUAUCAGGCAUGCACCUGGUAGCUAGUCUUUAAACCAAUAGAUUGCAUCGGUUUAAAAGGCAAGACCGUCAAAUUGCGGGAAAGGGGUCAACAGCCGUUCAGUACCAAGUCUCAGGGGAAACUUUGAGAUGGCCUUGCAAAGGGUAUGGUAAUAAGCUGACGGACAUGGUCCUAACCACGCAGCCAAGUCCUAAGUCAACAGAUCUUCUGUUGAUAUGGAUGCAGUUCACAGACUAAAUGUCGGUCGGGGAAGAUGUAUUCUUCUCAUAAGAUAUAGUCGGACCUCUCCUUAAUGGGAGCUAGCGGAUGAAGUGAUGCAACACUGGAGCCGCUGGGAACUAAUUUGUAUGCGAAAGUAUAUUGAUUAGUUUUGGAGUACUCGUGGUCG;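 also: selection with 25 µg/mL kanamycin versus none on LB agar overnight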
Settings: 37 °C
Threshold rule: self-splicing fitness (ln) greater than or equal to -1 is Met; below that, Not met.

IN: Assess whether reported self-splicing fitness (ln) for UCUCAGCAAUAUUACGCAUA sits at -1 or higher.
OUT: Met

IN: Assess whether reported self-splicing fitness (ln) for ACCUAGCAAUAUUACGUCUU sits at -1 or higher.
OUT: Met

IN: Assess whether reported self-splicing fitness (ln) for CGGAAGCAAUAUUACGUAAU sits at -1 or higher.
OUT: Not met

IN: Assess whether reported self-splicing fitness (ln) for UUUCAGCAAUAUUACGGCUA sits at -1 or higher.
OUT: Met

IN: Assess whether reported self-splicing fitness (ln) for CUUGAGCAAUAUUACGCACC sits at -1 or higher.
OUT: Not met

IN: Assess whether reported self-splicing fitness (ln) for CAUAAGCAAUAUUACGAGAG sits at -1 or higher.
OUT: Not met

IN: Assess whether reported self-splicing fitness (ln) for GGUGAGCAAUAUUACGAAGU sits at -1 or higher.
OUT: Not met

IN: Assess whether reported self-splicing fitness (ln) for UUAGAGCAAUAUUACGUGCA sits at -1 or higher.
OUT: Met

IN: Assess whether reported self-splicing fitness (ln) for AAUAAGCAAUAUUACGGUGG sits at -1 or higher.
OUT: Not met

IN: Assess whether reported self-splicing fitness (ln) for GAUUAGCAAUAUUACGUACC sits at -1 or higher.
OUT: Met

IN: Assess whether reported self-splicing fitness (ln) for CGUUAGCAAUAUUACGGCAU sits at -1 or higher.
OUT: Not met

IN: Assess whether reported self-splicing fitness (ln) for CAGUAGCAAUAUUACGCUAG sits at -1 or higher.
OUT: Not met

IN: Assess whether reported self-splicing fitness (ln) for CCGGAGCAAUAUUACGUAUG sits at -1 or higher.
OUT: Met

IN: Assess whether reported self-splicing fitness (ln) for GGUGAGCAAUAUUACGGGUA sits at -1 or higher.
OUT: Not met

IN: Assess whether reported self-splicing fitness (ln) for UGCCAGCAAUAUUACGCCGC sits at -1 or higher.
OUT: Not met

IN: Assess whether reported self-splicing fitness (ln) for UACGAGCAAUAUUACGUCAG sits at -1 or higher.
OUT: Not met

IN: Assess whether reported self-splicing fitness (ln) for GUGGAGCAAUAUUACGUUUC sits at -1 or higher.
OUT: Not met

IN: Assess whether reported self-splicing fitness (ln) for CUCGAGCAAUAUUACGAUAU sits at -1 or higher.
OUT: Not met

IN: Assess whether reported self-splicing fitness (ln) for UAUCAGCAAUAUUACGUCCG sits at -1 or higher.
OUT: Met

IN: Assess whether reported self-splicing fitness (ln) for ACCAAGCAAUAUUACGUUAA sits at -1 or higher.
OUT: Not met

IN: Assess whether reported self-splicing fitness (ln) for GCAAAGCAAUAUUACGGGGC sits at -1 or higher.
OUT: Not met

IN: Assess whether reported self-splicing fitness (ln) for UGGUAGCAAUAUUACGGUUC sits at -1 or higher.
OUT: Not met

IN: Assess whether reported self-splicing fitness (ln) for UAUGAGCAAUAUUACGAUCG sits at -1 or higher.
OUT: Met

IN: Assess whether reported self-splicing fitness (ln) for AAAAAGCAAUAUUACGCGAC sits at -1 or higher.
OUT: Not met

IN: Assess whether reported self-splicing fitness (ln) for GUAUAGCAAUAUUACGCGCU sits at -1 or higher.
OUT: Met

IN: Assess whether reported self-splicing fitness (ln) for AAUGAGCAAUAUUACGAAUA sits at -1 or higher.
OUT: Not met

IN: Assess whether reported self-splicing fitness (ln) for CCGCAGCAAUAUUACGUUGC sits at -1 or higher.
OUT: Not met
